// reported melting point for each item listed

{"smiles.entry": "CCCC(CCC)c1ccc(COc2ccc(-c3csc(CN4Cc5ccccc5C[C@H]4C(=O)O)n3)cc2)cc1", "melting point": "90 to 93 °C"}
{"smiles.entry": "C[C@H]1CC[C@H](c2ccc(COc3ccc(-c4ccc(CN(CC5CCCCC5)S(=O)(=O)c5ccc(C(=O)O)cc5)s4)cc3)cc2)CC1", "melting point": "234 to 241.8 °C"}
{"smiles.entry": "CCN(Cc1ccc(C(C)C)cc1)c1ccc(-c2csc(CN(CC(=O)O)Cc3ccc(C(C)C)cc3)n2)cc1", "melting point": "74 to 78 °C"}
{"smiles.entry": "CCC(CC)c1ccc(N(Cc2ccc(-c3csc(CNc4cccc(C(=O)O)c4)n3)cc2)C(C)C)cc1", "melting point": "159 to 160 °C"}
{"smiles.entry": "CCC(CC)c1ccc(COc2ccc(-c3csc(CN(CC(=O)O)Cc4ccccn4)n3)cc2)cc1", "melting point": "156 to 157 °C"}
{"smiles.entry": "CCCC(CCC)c1ccc(COc2ccc(-c3csc(CN(CC(=O)O)C(=O)c4ccccc4)n3)cc2)cc1", "melting point": "141 to 144 °C"}
{"smiles.entry": "CN(Cc1ccc(C2CCCCC2)cc1)c1ccc(-c2csc(CN3CCC(C(=O)O)(c4ccccc4)CC3)n2)cc1", "melting point": "220 to 222 °C"}
{"smiles.entry": "CCCC(CCC)c1ccc(OCc2ccc(-c3csc(CN(CC(=O)O)Cc4nccn4Cc4ccccc4)c3)cc2)cc1", "melting point": "135.2 to 136 °C"}
{"smiles.entry": "CCCC(CCC)c1ccc(OCc2ccc(-c3ccc(CN(CC(=O)O)S(C)(=O)=O)s3)cc2)cc1", "melting point": "133.1 to 136.5 °C"}
{"smiles.entry": "Cl.O=C(O)CN(Cc1ccccc1)Cc1ccc(-c2cn(Cc3ccc(C4CCCCC4)cc3)c3ccccc23)s1", "melting point": "161 to 164.3 °C"}
{"smiles.entry": "CCCC(CCC)c1ccc(OCc2ccc(-c3csc(Cn4nc(C)cc4C(=O)O)n3)cc2)cc1", "melting point": "141 to 143 °C"}
{"smiles.entry": "CN(Cc1nc(-c2ccc(N(C)Cc3ccc(C4CCCCC4)cc3)cc2)cs1)C(=O)c1ccc(C(=O)O)cc1", "melting point": "162 to 164 °C"}
{"smiles.entry": "CCC(CC)c1ccc2c(c1)nc(-c1csc(COc3ccc(C(=O)O)cc3)n1)n2Cc1ccc(C(C)=O)cc1", "melting point": "127 to 132 °C"}
{"smiles.entry": "CCCC(CCC)c1ccc(OCc2ccc(-c3csc(CN4CCc5ccc(C(=O)O)cc5C4)n3)cc2)cc1", "melting point": "148.5 to 149.5 °C"}
